Attribution: paper PMC9482650

targetEntity: FRMPD2_2, Q68DX3
Sequence (Q68DX3 944-1038): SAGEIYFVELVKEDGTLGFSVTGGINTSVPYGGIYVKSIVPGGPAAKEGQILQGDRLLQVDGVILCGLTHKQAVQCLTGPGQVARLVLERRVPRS
assayExplanation: holdup assay
Design: key: below the threshold = too weak to quantify, mostly under pKd 3.1 to 4
conditionParameters: plain residues with an end cap or a label only (N-terminal biotin on a linker: ttds)
measuredAttribute: pKd

As a guide, the following entries are already answered.
{"binder": "RHTTSTETAV [HPV30-E6, P36809]", "experimentalResult": 4.23}
{"binder": "VDFPPKESSL [ACVR2A, P27037]", "experimentalResult": "below the threshold"}
{"binder": "PRVKPQRSKV [PPP1R13L, Q8WUF5]", "experimentalResult": "below the threshold"}
{"binder": "KKYVDAETSL [SLC4A7, Q9Y6M7]", "experimentalResult": "below the threshold"}
{"binder": "SGSRPSATVV [HPV73-E6, Q82005]", "experimentalResult": "below the threshold"}
{"binder": "PVRVCEETSL [OTULIN, Q96BN8]", "experimentalResult": 3.51}
{"binder": "SSLQSLETSV [ATP2B4, P23634]", "experimentalResult": 4.64}

As a next step, examine the binder that follows.
Can you look up the measured pKd of EVVHTPETSV [SLC16A3, O15427] for me?
4.5
